- target_or_test_system: Estrogen Receptor (ERα) in MCF-7 cells (Homo sapiens (Human))
- Sequence (P03372 whole entry): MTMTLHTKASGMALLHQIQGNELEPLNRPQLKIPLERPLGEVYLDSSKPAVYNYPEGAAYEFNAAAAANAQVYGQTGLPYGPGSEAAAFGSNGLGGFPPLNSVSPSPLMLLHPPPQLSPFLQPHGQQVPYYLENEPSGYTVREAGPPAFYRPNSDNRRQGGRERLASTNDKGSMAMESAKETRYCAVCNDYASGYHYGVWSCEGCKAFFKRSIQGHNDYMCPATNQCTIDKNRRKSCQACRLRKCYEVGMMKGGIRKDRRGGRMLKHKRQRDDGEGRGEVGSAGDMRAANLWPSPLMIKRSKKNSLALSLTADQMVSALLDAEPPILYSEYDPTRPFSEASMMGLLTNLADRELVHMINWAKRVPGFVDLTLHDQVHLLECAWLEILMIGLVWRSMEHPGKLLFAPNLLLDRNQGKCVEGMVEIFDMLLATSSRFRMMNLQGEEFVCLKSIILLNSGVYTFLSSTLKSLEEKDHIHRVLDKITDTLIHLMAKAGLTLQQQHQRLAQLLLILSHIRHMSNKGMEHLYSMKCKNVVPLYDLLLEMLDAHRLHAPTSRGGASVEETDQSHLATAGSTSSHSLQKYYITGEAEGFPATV
- method_description: Western blotting assay, MCF-7 cells
- Format: cell-based
- condition_notes: compound 100 nM, 48 h, normalised to 100 nM fulvestrant (100%)
For each record, write down the corresponding MCF7 Western % ER deg vs Fv.
Give bare numbers, in %.

Answered examples (5):
- compound: "COc1cc(OCCNCCCF)ncc1[C@@H]1c2[nH]c3ccccc3c2C[C@@H](C)N1CC(F)(F)F [Example 41]"
  MCF7 Western % ER deg vs Fv / %: 74
- compound: "COc1cc(OCCNCCCF)ncc1[C@@H]1c2[nH]c3ccccc3c2C[C@@H](C)N1CC(F)F [Example 40]"
  MCF7 Western % ER deg vs Fv / %: 90
- compound: "COc1cc(OCCNCCCF)cnc1[C@@H]1c2[nH]c3ccccc3c2C[C@@H](C)N1CC(C)(C)F [Example 35]"
  MCF7 Western % ER deg vs Fv / %: 81
- compound: "C[C@@H]1Cc2c([nH]c3ccccc23)[C@@H](c2ccc(OCCNCCCF)cc2)N1CC(F)F [Example 56]"
  MCF7 Western % ER deg vs Fv / %: 74
- compound: "COCC(F)(F)CN1[C@H](c2c(F)cc(OCCNCCCF)cc2F)c2[nH]c3ccccc3c2C[C@H]1C [Example 14]"
  MCF7 Western % ER deg vs Fv / %: 61

Below are 7 compounds. Give each one its MCF7 Western % ER deg vs Fv.
1. COc1cc(OCCNCCCF)ccc1[C@@H]1c2[nH]c3ccccc3c2C[C@@H](C)N1CC1(F)CC1 [Example 11]
2. COc1nc(OCCNCCCF)ccc1[C@@H]1c2[nH]c3ccccc3c2C[C@@H](C)N1CC(F)F [Example 75]
3. C[C@@H]1Cc2c([nH]c3ccccc23)[C@@H](c2c(F)cc(NCCNCCCF)cc2F)N1CC1(F)CC1 [Example 9]
4. COc1cc(OCCNCCCF)ncc1[C@@H]1c2[nH]c3ccccc3c2C[C@@H](C)N1CC(F)(F)CO [Example 64]
5. C[C@@H]1Cc2c([nH]c3ccccc23)[C@@H](c2c(F)cc(NCCNCCCF)cc2F)N1CC1(F)COC1 [Example 44]
6. COc1cc(OCCNCCCF)ncc1[C@@H]1c2[nH]c3ccccc3c2C[C@@H](C)N1CC(C)(F)F [Example 42]
7. C[C@@H]1Cc2c([nH]c3ccccc23)[C@@H](c2c(F)cc(OCCNCCC(F)F)cc2F)N1CC(C)(C)F [Example 3]

1: 81; 2: 31; 3: 82; 4: 73; 5: 85; 6: 90; 7: 64

Below are 6 compounds. Give each one its MCF7 Western % ER deg vs Fv.
1. COc1cc(NCCNCCCF)ccc1[C@@H]1c2[nH]c3ccccc3c2C[C@@H](C)N1CC1(F)COC1 [Example 47]
2. COc1cc(OCCNCCCF)ncc1[C@@H]1c2[nH]c3ccccc3c2C[C@@H](C)N1CC1(F)COC1 [Example 7]
3. C[C@@H]1Cc2c([nH]c3ccccc23)[C@@H](c2c(F)cc(N(C)CCNCCCF)cc2F)N1CC1(F)CC1 [Example 45]
4. C[C@@H]1Cc2c([nH]c3ccccc23)[C@@H](c2c(F)cc(NCCNCCCF)cc2F)N1CC(F)F [Example 54]
5. COc1cc(OCCNCCCF)ccc1[C@@H]1c2[nH]c3ccccc3c2C[C@@H](C)N1CC1(F)COC1 [Example 8]
6. C[C@@H]1Cc2c([nH]c3ccccc23)[C@@H](c2ccc(OCCNCCCF)cc2F)N1CC(F)F [Example 48]

1: 90; 2: 74; 3: 97; 4: 87; 5: 77; 6: 58

Below are 4 compounds. Give each one its MCF7 Western % ER deg vs Fv.
1. COc1cc(OCCNCCCF)ncc1[C@@H]1c2[nH]c3ccccc3c2C[C@@H](C)N1CC(C)(C)F [Example 36]
2. C[C@@H]1Cc2c([nH]c3ccccc23)[C@@H](c2c(F)cc(N(C)CCNCCCF)cc2F)N1CC(F)F [Example 49]
3. C[C@@H]1Cc2c([nH]c3ccccc23)[C@@H](c2c(F)cc(NCCNCCCF)cc2F)N1CC(F)(F)CO [Example 46]
4. C[C@@H]1Cc2c([nH]c3ccccc23)[C@@H](c2cnc(OCCNCCCF)cn2)N1CC(C)(C)F [Example 38]

1. 83
2. 100
3. 88
4. 88
